Some molecules, each annotated with its measured MBC.
- System: Streptococcus pyogenes
- Experiment Notes: Bactericidal activity against Streptococcus pyogenes 12-207 expressing mef incubated for 20 to 24 hrs followed by sub-culturing for 24 hrs in absence of compound
- Format: functional

Answered cases to consult:
INSERT INTO measurements (mol_smiles, result) VALUES
  ('CC[C@H]1OC(=O)[C@H](C)[C@@H](OC(=O)Cc2ccccn2)[C@H](C)[C@@H](O[C@@H]2O[C@H](C)C[C@H](N(C)C)[C@H]2O)[C@](C)(OC)C[C@@H](C)/C(=N\OCC#Cc2cncc(N)c2)[C@H](C)[C@H]2OC(=O)O[C@@]21C', '> 1 µg/mL'),
  ('CC[C@H]1OC(=O)[C@H](C)[C@@H](OC(=O)Cc2ccccn2)[C@H](C)[C@@H](O[C@@H]2O[C@H](C)C[C@H](N(C)C)[C@H]2O)[C@](C)(OC)C[C@@H](C)/C(=N\OCC#Cc2cncc(C(N)=O)c2)[C@H](C)[C@H]2OC(=O)O[C@@]21C', '> 0.125 µg/mL'),
  ('CC[C@H]1OC(=O)[C@H](C)[C@@H](OC(=O)Cc2ccccn2)[C@H](C)[C@@H](O[C@@H]2O[C@H](C)C[C@H](N(C)C)[C@H]2O)[C@](C)(OC)C[C@@H](C)/C(=N\OCC#Cc2cnc(N)nc2)[C@H](C)[C@H]2OC(=O)O[C@@]21C', '> 2 µg/mL');

Then there is this molecule:
Ask | Look up MBC: CC[C@H]1OC(=O)[C@H](C)[C@@H](OC(=O)Cc2ccccn2)[C@H](C)[C@@H](O[C@@H]2O[C@H](C)C[C@H](N(C)C)[C@H]2O)[C@](C)(OC)C[C@@H](C)/C(=N\OCC#Cc2ccc3nccnc3c2)[C@H](C)[C@H]2OC(=O)O[C@@]21C
Reply | > 0.5 µg/mL
